experiment: blood-stage malaria parasite viability loss – strain 3D7, DAPI fluorescence, 100 nL, primary screen (AID 1184);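 also: parasites grown inside human red blood cells in medium with human serum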; settings: P. falciparum 3D7 growth, 3 d, higher = more signal
Below, each of the molecules is paired with its reported z-score value.
Please give only the number in your answer, with no unit.

MOLECULE: CC1CC/C=C\[C@H]2OC34C=CCN(Cc5ccccc5)C(=O)[C@H]3N(CCCCCCO)C(=O)[C@@H]4C2C(=O)O1 (some centres undefined)
z-score: -0.147
--
MOLECULE: CN1C(=O)C2C(C3CC3)C=C3CN(Cc4cccc(Cl)c4)[C@@H]([C@@H](O)Cc4ccccc4)C3C2C1=O (some centres undefined)
z-score: -0.185
--
MOLECULE: COc1cc(OC)c(C(O)C2C=CC3C(=O)N(c4ccccc4)C(=O)C3N2Nc2ccc(C(C)C)cc2)cc1Br (centres undefined)
z-score: -0.0986

Kindly review the next molecule as well.
Qu. Give the measured z-score for CC=CC(O)C1C=CC2C(=O)NC(=O)C2N1Nc1ccc(Cl)cc1Cl (centres undefined)
Ans. 0.179

---

test: viability profiling in MM1S myeloma cells – cell-based, resazurin fluorescence, basal, 24 h, PK04 Diversity Set, profiling panel (AID 1174); details: higher = more signal, called active from +8 up or from −8 down;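 also: MM1S multiple myeloma cell line; test concentration not given here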
Is z-score at least 0.01? Then met. If not, not met.

For orientation, consider the following solved cases.
COMPOUND: CCOC(=O)C[C@H]1[C@H](OC(=O)Cc2ccc3c(c2)OCO3)[C@@H](NC(=O)c2ccc3ccccc3n2)c2cc(OCCCO)ccc2N1C(=O)Cc1ccc(OC)cc1
LABEL: not met

COMPOUND: COCCCN1C(=O)[C@@]2(c3ccc([N+](=O)[O-])cc3)CC(=O)N(CC34CC5CC(CC(C5)C3)C4)[C@@H]2c2ccc(CO)cc21
LABEL: not met

COMPOUND: CC(C)OC(=O)CC(=O)CC(O)c1cccc([N+](=O)[O-])c1 (stereo not given)
LABEL: met

COMPOUND: COc1ccc([Si](C)(C)[C@H]2[C@H](CC(=O)N3Cc4ccccc4C[C@H]3CO)O[C@@]3(C(=O)N(C)c4ccccc43)[C@@H]2C)cc1
LABEL: not met

COMPOUND: O=C1[C@H]2C=C(I)[C@H](C[C@@H]2c2ccccc2)[C@@]12CO2
LABEL: not met

COMPOUND: CN1C(=O)C2C(C1=O)C1C=C(c3ccc(CO)cc3)C2C(C2CC2)N1C (stereo not given)
LABEL: not met

COMPOUND: CCCCC(O)C1C=CC2C(=O)N(c3ccccc3)C(=O)C2N1Nc1ccc(C#N)cc1 (stereo not given)
LABEL: met

COMPOUND: COc1cc(C(O)C2C=CC3C(=O)N(c4ccccc4)C(=O)C3N2Nc2ccccc2F)cc(OC)c1OC (stereo not given)
LABEL: not met

Qu. Given [N-]=[N+]=Nc1ccccc1C[C@@]1(C(=O)NCC(O)CO)N=C(c2ccc(OCCCO)cc2)O[C@@H]1c1ccccc1 (stereo not given in full) , state whether its z-score is at least 0.01.
Ans. met

Qu. Check if z-score >= 0.01 (inclusive). Item: COCCOC(=O)N1C(=O)[C@@]2(c3cc(C#CCNC(N)=O)ccc31)[C@H](C(=O)Nc1nc3ccccc3s1)[C@H]1C(=O)O[C@H](c3ccccc3)[C@H](c3ccccc3)N1[C@@H]2c1ccccc1OCCO
Ans. not met

Qu. Please tell me: is the compound C=C(COC)/C(=C/C[C@H](OC(C)=O)c1ccccc1OCCO)c1cc(C(=O)OC)ccc1OC at or over 0.01 in terms of z-score?
Ans. met

Qu. Say whether COc1ccc(C#Cc2ccc3c(c2)[C@]2(C(=O)N3)[C@H](C(=O)O)[C@H]3C(=O)O[C@H](c4ccccc4)[C@H](c4ccccc4)N3[C@@H]2c2ccccc2OCCO)cc1 shows z-score of 0.01 or more.
Ans. not met

Qu. Check this compound for z-score at or above 0.01: CCOC(=O)C[C@H]1[C@H](OC(=O)Cc2ccc3c(c2)OCO3)[C@@H](NC(=O)Cc2ccc(OC)cc2)c2cc(OCCCO)ccc2N1C(=O)Cc1ccc(OC)cc1
Ans. met

Qu. Please indicate if the recorded z-score for O=C(NCc1ccc(F)cc1)[C@H]1C[C@H]2C(=O)N3CCC[C@H]3C(=O)N2[C@H]1c1ccc(O)cc1 meets or exceeds 0.01.
Ans. met

Qu. Is reported z-score greater than or equal to 0.01 here: CN(C)C(=O)[C@]1(Cc2ccccc2)N=C(c2ccc(OCCCO)cc2)O[C@@H]1c1ccccc1CN=[N+]=[N-]
Ans. not met

---

test: optical density change of DRC41 E. coli – strain DRC41, OD650, 24 h, E. coli filamentation project, primary screen (AID 1093);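 also: MC1000 strain lacking acrAB efflux and sulA so SOS filamentation is blocked; test concentration not given here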; settings: E. coli DRC41 growth, higher = more signal, called active from +8 up or from −8 down
The threshold is inclusive: z-score of exactly -0.6 counts as true (1); values below receive false (0).

COMPOUND: C=CCN1C(=O)[C@@]2(O[C@@H](CCn3cc([C@H](O)c4ccccc4)nn3)[C@H]([Si](C)(C)c3ccc(OC)cc3)[C@H]2C)c2cc(N3C(=O)c4cccc5cccc3c45)ccc21
LABEL: false (0)
--
COMPOUND: C=CCNC(=O)[C@@H]1[C@H]2C(=O)O[C@H](c3ccccc3)[C@H](c3ccccc3)N2[C@H](c2ccc(OCCO)cc2)[C@@]12C(=O)Nc1ccc(C#CC3(O)CCCCCC3)cc12
LABEL: true (1)
--
COMPOUND: NC(=O)N1C(=O)C2C(C1=O)C1C=C(CCCO)C2C(c2ccc(CN3CCCC3)cc2)N1Cc1cc2c(cc1Br)OCO2 (configuration not stated)
LABEL: true (1)
--
COMPOUND: CCOC(=O)C[C@H]1[C@H](OC(=O)c2ccccc2-c2ccccc2)[C@@H](NC(=O)c2ccc3ccccc3c2)c2cc(OCCCO)ccc2N1C(=O)Cc1ccc(OC)cc1
LABEL: false (0)
--
COMPOUND: C[C@]1(C(=O)O)c2ccccc2C(=O)N(Cc2cc(F)cc(C(F)(F)F)c2)[C@H]1c1ccc(CO)cc1
LABEL: true (1)

Qu. Identify whether the reported z-score of the following compound is -0.6 or greater: C=CC1c2cc(O)c(OC)cc2CCN1C (configuration not stated)
Ans. true (1)

---

assay: probe aShh binding to arrayed compounds – biochemical, biotinylated probe, 635/667 nm fluorescence, primary screen (AID 1114); conditions: small-molecule microarray, higher = more signal;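 also: probe is biotin-labelled aShh protein from a stem cell growth factor screen; measures binding of labelled protein to compounds printed on the slide; score merges feature fluorescence at 667 nm with signal-to-noise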
REPORTED_METRIC: composite z-score
Returns: the value as a bare number; no unit string appended.

Observe how each entry below is paired with its result.
COMPOUND: CCOC(=O)C[C@H]1[C@H](OC(=O)Cc2ccc3c(c2)OCO3)[C@@H](NC(=O)Cc2ccc(OC)cc2)c2cc(OCCCO)ccc2N1C(=O)Cc1ccc(OC)cc1
composite z-score: -0.14

COMPOUND: O=C(NCc1ccccc1)[C@@H]1c2ccccc2C(=O)N(Cc2cc(C(F)(F)F)cc(C(F)(F)F)c2)[C@H]1c1ccc(CO)cc1
composite z-score: -0.0011

COMPOUND: C=C(CCCC)/C(=C/C[C@H](OC(C)=O)c1cccc(OCCO)c1)c1cnc2ccccc2c1
composite z-score: 0.0723

Continue with the next compound.
Qu. Let me know recorded composite z-score for COc1cc(C(O)C2C=CC3C(=O)N(c4ccccc4)C(=O)C3N2Nc2ccccc2)cc(OC)c1OC (centres undefined) , thanks.
Ans. 0.551

---

target: Neurogenic locus notch homolog protein 3 (Homo sapiens); assay: small molecules binding NOTCH3 protein – biochemical, 635/667 nm fluorescence, primary screen (AID 1096); settings: small-molecule microarray, 635 nm fluorescence, higher = more signal
# key: entry, value: composite z-score
I only need the number, thanks.

MOLECULE: C=CCC(OC(C)=O)[C@@H]1[C@@H](N(Cc2ccc(-c3cccc(C(F)(F)F)c3)o2)C(=O)c2ccc(-c3ccccc3)cc2)c2cc(OCCCO)ccc2N1C(=O)c1ccc2ccccc2c1 (some centres undefined)
composite z-score: 0.461
//
MOLECULE: COC(=O)[C@@]1(Cc2ccc(OC)cc2)[C@H]2c3cc(C(=O)N(C)C)[nH]c3C[C@H]2CN1C(=O)c1ccccc1
composite z-score: 0.201
//
MOLECULE: CN(C)CCCCNC(=O)[C@H]1C[C@H]2C(=O)NCC(=O)N2[C@H]1c1ccc(O)cc1
composite z-score: 0.408

Please turn your attention to the following entry.
Qu. Item C=CCC(OC(C)=O)[C@@H]1[C@@H](N(Cc2cccc3ccccc23)C(=O)c2ccc(-c3ccccc3)cc2)c2cc(OCCCO)ccc2N1C(=O)Cc1ccc2ccccc2c1 (some centres undefined) : provide composite z-score
Ans. 0.397

---

test: compound effects on hepatocellular carcinoma cell viability – HepG2, calcein-AM fluorescence, 48 h, basal, profiling panel (AID 1164); settings: higher = more signal; also: test concentration not given here
Listing of recorded z-score by entry.
Could you keep your reply to the number by itself?

Known z-score results, listed for orientation:
COMPOUND: CC(C)C[C@H]1NC(=O)C([C@@H](C)OCc2ccccc2)NC(=O)[C@@]23C(=O)N[C@@H](Cc4ccccc4)C2[C@H](C)[C@@]2(C)O[C@H]2C3/C=C/C/C=C\CNC1=O (some centres undefined)
z-score: -0.3
//
COMPOUND: CC(C)NC(=O)[C@@H]1c2ccccc2C(=O)N(Cc2ccccc2C(F)(F)F)[C@H]1c1ccc(CO)cc1
z-score: -0.052
//
COMPOUND: O=C1C2C=CC(C(O)c3ccc([N+](=O)[O-])cc3)N(Nc3ccccc3F)C2C(=O)N1c1ccccc1 (centres undefined)
z-score: -1.16
//
COMPOUND: O=C1[C@H]2C=C(I)[C@H](C[C@@H]2c2ccccc2)[C@@]12CO2
z-score: -0.382

Qu. Query z-score for COCCOC(=O)N1C(=O)[C@@]2(c3ccccc31)[C@H](C(=O)N1CCN(c3ncccn3)CC1)[C@H]1C(=O)O[C@H](c3ccccc3)[C@H](c3ccccc3)N1[C@@H]2c1ccccc1OCCO
Ans. -0.0577

Qu. Return the recorded z-score value; entry: COC(=O)C[C@H]1O[C@@]2(C[C@@H]1[Si](C)(C)C)C(=O)N(C)c1ccccc12
Ans. 0.606

Qu. Quickly give me recorded z-score for C=C(CCCC)/C(=C/C[C@H](OC(=O)c1ccncc1)c1cccc(OCCO)c1)c1cnc2ccccc2c1
Ans. 0.0815

Qu. Supply z-score value. Item: Cc1ccc(S[C@]2(C(=O)NC3CC3)CC(=O)N(C(C)C)[C@@H]2c2ccc(CO)cc2I)cc1
Ans. -0.722

Qu. Provide one value: measured z-score of COC(=O)[C@@]1(Cc2ccc(F)cc2)[C@H]2c3cc(C(=O)N4CCCC4)n(Cc4ccccn4)c3C[C@H]2CN1C(=O)c1ccccc1
Ans. -0.347

Qu. Given the compound O=C1O[C@@H](c2ccccc2)[C@@H](c2ccccc2)N2[C@@H](c3ccc(OCCO)cc3)[C@]3(C(=O)Nc4ccc(C#CC5(O)CCCCCC5)cc43)[C@@H](C(=O)Nc3nc4ccccc4s3)[C@H]12 , write its reported z-score.
Ans. 0.667

Qu. Output measured z-score for this item: COC(=O)C(CC#Cc1ccc2c(c1)[C@]1(C(=O)N2)[C@H](C(=O)NC[C@H](O)c2ccccc2)[C@H]2C(=O)O[C@H](c3ccccc3)[C@H](c3ccccc3)N2[C@@H]1c1ccccc1OCCO)C(=O)OC
Ans. -0.272

Qu. Supply reported z-score belonging to this compound: C=CCC(OC(C)=O)[C@@H]1[C@@H](N(Cc2ccc(-c3ccccc3)cc2)C(=O)c2cccc3ccccc23)c2cc(OCCCO)ccc2N1C(=O)Cc1ccc(OC)cc1 (some centres undefined)
Ans. -0.518

Qu. Name the recorded z-score of the item COC(=O)[C@H](Cc1ccccc1)N1CC2=CCCC=C[C@@H]2[C@H]1[C@H](O)Cc1ccccc1 in your answer.
Ans. 0.244

Qu. Identify the reported z-score for the following entry. O=C(NCC(O)CO)C1N=C(c2ccc(OCCCO)cc2)N(c2ccccc2)O1 (centres undefined)
Ans. 0.285
